target: CK1γ2 (Homo sapiens, UniProt P78368); experiment: CK1γ2 NanoBRET assay with tracer 23, intact cells; assay type: cell-based; settings: read-out: NB IC50 CK1γ2; tracer 23; intact HEK293 cells; N = 1
Sequence (P78368 whole entry): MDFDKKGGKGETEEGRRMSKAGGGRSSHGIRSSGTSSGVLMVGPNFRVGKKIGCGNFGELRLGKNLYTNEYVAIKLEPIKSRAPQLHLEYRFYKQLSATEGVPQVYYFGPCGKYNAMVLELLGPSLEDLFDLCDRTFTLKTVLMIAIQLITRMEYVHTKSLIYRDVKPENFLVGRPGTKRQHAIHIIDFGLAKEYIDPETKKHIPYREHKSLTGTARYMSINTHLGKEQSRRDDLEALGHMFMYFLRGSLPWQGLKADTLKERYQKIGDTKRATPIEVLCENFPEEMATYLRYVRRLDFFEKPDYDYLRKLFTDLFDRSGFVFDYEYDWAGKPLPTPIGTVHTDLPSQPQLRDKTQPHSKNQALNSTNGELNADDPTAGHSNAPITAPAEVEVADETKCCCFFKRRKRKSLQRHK
Reported IC50 values are given for each entry in this list.

Molecule: Nc1nccc(-c2c(-c3ccc(F)cc3)ncn2C2CCCCC2)n1 [PF-670462, reference compound]
IC50: > 30 µM

Alright, here's another molecule for you.
Lookup: I have this molecule here, Cc1ccc2nc(NC(=O)CSc3nc4c(c(=O)n3-c3ccc(F)cc3)SCC4)sc2c1 [IWP-3, reference compound] , and I need its recorded IC50.
Found: > 30 µM

====

target: UniProtKB Q9HCP0; test: Eurofins radiometric enzymatic assay CK1γ1; format: biochemical
Sequence (Q9HCP0 whole entry): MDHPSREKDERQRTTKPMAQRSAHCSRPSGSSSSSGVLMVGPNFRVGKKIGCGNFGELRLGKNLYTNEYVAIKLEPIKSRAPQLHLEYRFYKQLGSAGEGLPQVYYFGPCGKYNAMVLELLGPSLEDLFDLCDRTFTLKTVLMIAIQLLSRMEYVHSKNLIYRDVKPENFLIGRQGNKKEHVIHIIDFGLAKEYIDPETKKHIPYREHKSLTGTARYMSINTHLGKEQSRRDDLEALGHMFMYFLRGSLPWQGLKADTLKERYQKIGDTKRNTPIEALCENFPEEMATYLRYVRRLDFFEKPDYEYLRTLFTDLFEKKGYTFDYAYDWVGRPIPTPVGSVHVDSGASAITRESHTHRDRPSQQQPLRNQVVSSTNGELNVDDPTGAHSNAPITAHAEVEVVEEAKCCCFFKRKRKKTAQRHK
Endpoint label: IC50 (nM)

Smiles representation: N#Cc1ccc2nc(Nc3cc(F)c(N4CCOCC4)c(F)c3)[nH]c2c1
Uom: nM
IC50: 121

[a] N#Cc1ccc2nc(Nc3ccc(N4CCOCC4)c(C(F)(F)F)c3)[nH]c2c1
[b] N#Cc1ccc2nc(Nc3ccc(N4CCOCC4)cc3)[nH]c2c1
[c] COc1cc(N2CCOCC2)ccc1Nc1nc2ccc(C#N)cc2[nH]1
[d] N#Cc1ccc2nc(Nc3ccc(N4CCOCC4)c(F)c3)[nH]c2c1
Lookup: rank_up(items): orders items by reported IC50 in ascending numerical order. A ranking is expressed here by listing the labels in the requested order.
Found: a, d, b, c
(a: 120 nM, d: 212 nM, b: 430 nM, c: 5520 nM)

====

target: CK1γ2 (Homo sapiens); assay: CK1γ2 NanoBRET assay with tracer 23, intact cells; assay type: cell-based; conditions: NB IC50 CK1γ2, tracer 23; intact HEK293 cells; N = 1
pIC50: −log10 of the molar value.
Endpoint label: pIC50

Solved entries:
Smiles representation: N#Cc1ccc2nc(Nc3ccc(N4CCOCC4)c(Cl)c3)[nH]c2c1
pIC50: 6.74
//
Smiles representation: N#Cc1ccc2nc(Nc3ccc(N4CCOCC4)c(C(F)(F)F)c3)[nH]c2c1
pIC50: 6.11

[1] N#Cc1ccc2nc(Nc3ccc(N4CCOCC4)c(F)c3)[nH]c2c1
[2] N#Cc1ccc2[nH]c(Nc3ccc(N4CCCCC4)c(Cl)c3)nc2c1
Lookup: Would you kindly point out which of 1 and 2 has the smaller pIC50 figure? Please respond with the label that marks your chosen entry.
Found: 1
